Origin of values: paper PMC6362038

Catalogue of R value (θπ → π*/θn → π*) values
# protocol-notes: Circular dichroism, R value of secondary structure
# Type: physicochemical
# test-parameters: CD, 40% TFE/pH 7.3 HEPES buffer, peptide 24 µM
Square brackets hold non-standard residues; d marks the D form. Peptide text beside a SMILES is read from it. * marks the point of attachment. 5FAM = O=C1OC2(c3ccc(O)cc3Oc3cc(O)ccc32)c2ccc(C(=O)*)cc21; αMeL = CC(C)C[C@](C)(N)C(=O)O; Ac5c = NC1(C(=O)O)CCCC1

>  <molecule>
N=C(N)NCCC[C@H](NC(=O)CNC(=O)c1ccc2c(c1)C(=O)OC21c2ccc(O)cc2Oc2cc(O)ccc21)C(=O)N[C@@H](CCCNC(=N)N)C(=O)NC1(C(=O)N[C@@H](CCCNC(=N)N)C(=O)N[C@@H](CCCNC(=N)N)C(=O)NC2(C(=O)N[C@@H](CCCNC(=N)N)C(=O)N[C@@H](CCCNC(=N)N)C(=O)NC3(C(N)=O)CCCC3)CCCC2)CCCC1 [Ac5c peptide] (5FAM-GRR[Ac5c]RR[Ac5c]RR[Ac5c]-NH2)

>  <R value (θπ → π*/θn → π*)>
0.61

$$$$
>  <molecule>
CC(C)C[C@](C)(NC(=O)[C@H](CCCNC(=N)N)NC(=O)[C@H](CCCNC(=N)N)NC(=O)[C@](C)(CC(C)C)NC(=O)[C@H](CCCNC(=N)N)NC(=O)[C@H](CCCNC(=N)N)NC(=O)[C@](C)(CC(C)C)NC(=O)[C@H](CCCNC(=N)N)NC(=O)[C@H](CCCNC(=N)N)NC(=O)CNC(=O)c1ccc2c(c1)C(=O)OC21c2ccc(O)cc2Oc2cc(O)ccc21)C(N)=O [(αMe)Leu peptide] (5FAM-GRR[αMeL]RR[αMeL]RR[αMeL]-NH2)

>  <R value (θπ → π*/θn → π*)>
0.57

$$$$
>  <molecule>
CC(C)C[C@H](NC(=O)[C@H](CCCNC(=N)N)NC(=O)[C@H](CCCNC(=N)N)NC(=O)[C@H](CC(C)C)NC(=O)[C@H](CCCNC(=N)N)NC(=O)[C@H](CCCNC(=N)N)NC(=O)[C@H](CC(C)C)NC(=O)[C@H](CCCNC(=N)N)NC(=O)[C@H](CCCNC(=N)N)NC(=O)CNC(=O)c1ccc2c(c1)C(=O)OC21c2ccc(O)cc2Oc2cc(O)ccc21)C(N)=O [Leu peptide] (5FAM-GRRLRRLRRL-NH2)

>  <R value (θπ → π*/θn → π*)>
0.26

$$$$
